Tested on: RSV strain A2
Assay: RSV antiviral cytoprotection assay in Hep2 cells (RSV-induced cytopathic effect, Cell TiterGlo)
Assay type: cell-based, Respiratory Syncytial Virus (RSV)
Settings: human respiratory syncytial virus, HEp-2, 0.5 μM compound; RSV A2-infected Hep2 cells; % inhibition calculated from 4-parameter dose response curve, normalized to 0% and 100%; read-out: Percent inhibition at 0.5 μM
Binary classification by inhibition at 0.5 µM, with 80% as an inclusive lower bound for Satisfied; all other cases are Not satisfied.

Cc1cn2nc([C@@H]3CCCCN3C(=O)c3ccc4cccc(F)c4n3)cc2nc1N1CC[C@H](N)C1 [Compound 52]    Not satisfied
Cc1ccc(Cl)c(C(=O)N2CCCC[C@H]2c2cc3nc(N4C[C@@H](C#N)[C@@H](O)C4)c(C)cn3n2)c1 [Compound 170]    Satisfied
Cc1cc(F)ccc1C(=O)N1CCCC[C@H]1c1cc2nc(N3CC[C@H](N)C3)c(C)cn2n1 [Compound 77]    Satisfied
CN[C@@H]1CCN(c2nc3cc([C@@H]4CCCCN4C(=O)c4cc(Cl)ccc4NS(C)(=O)=O)nn3cc2C)C1 [Compound 10]    Satisfied
Cc1cn2nc([C@@H]3CCCCN3C(=O)c3cccc4c3CCCN4)cc2nc1N1CC[C@H](N)C1 [Compound 60]    Satisfied
Cc1cn2nc([C@@H]3CCCCN3C(=O)c3cccc(F)n3)cc2nc1N1C[C@@H](C#N)[C@@H](O)C1 [Compound 160]    Not satisfied
CCS(=O)(=O)c1ccc(F)c(C(=O)N2CCCC[C@H]2c2cc3nc(N4CC[C@H](N)C4)c(C)cn3n2)c1 [Compound 67]    Not satisfied
Cc1cn2nc([C@@H]3CCCCN3C(=O)c3ccc(F)cn3)cc2nc1N1CC[C@H](N)C1 [Compound 26]    Satisfied
Cc1cn2nc([C@@H]3CCCCN3C(=O)c3ccc(C#N)cc3F)cc2nc1N1C[C@@H](C#N)[C@@H](O)C1 [Compound 117]    Not satisfied
Cc1cn2nc([C@@H]3CCCCN3C(=O)c3cc(F)c(F)c(Cl)c3F)cc2nc1N1CC[C@H](N)C1 [Compound 28]    Satisfied
Cc1cn2nc([C@@H]3CCCCN3C(=O)c3cc(F)c(F)c(Cl)c3F)cc2nc1N1C[C@@H](C#N)[C@@H](O)C1 [Compound 114]    Satisfied
COc1ccc(Cl)cc1C(=O)N1CCCC[C@H]1c1cc2nc(N3C[C@@H](C#N)[C@@H](O)C3)c(C)cn2n1 [Compound 201]    Satisfied
